Listing: CC50 at 120 h of selected molecules
testSummary: Cytotoxicity against human HUT78 cells assessed as reduction in cell viability after 5 days by MTT assay
Format: cell-based
measurementType: CC50 at 120 h

molecule: CC[C@H](C)[C@H](NC(=O)c1ccccc1[Se][Se]c1ccccc1C(=O)N[C@H](C(=O)O)[C@@H](C)CC)C(=O)O
result: > 162 µM
//
molecule: Cc1ccnc2c1NC(=O)c1cccnc1N2C1CC1 [NEVIRAPINE]
result: > 14 µM
//
molecule: NS(=O)(=O)c1ccc(NC(=O)c2ccccc2[Se][Se]c2ccccc2C(=O)Nc2ccc(S(N)(=O)=O)cc2)cc1
result: > 35 µM
//
molecule: CC1CNC(=O)c2ccccc2SSc2ccccc2C(=O)N1 (centres undefined)
result: > 7.5 µM

---

testSummary: Selectivity index, ratio of CC50 for human HUT78 cells to EC50 for HIV1 3B
Format: toxicity, cell-based
statedConditions: read-out: Ratio CC50/EC50

compound: CC[C@H](C)[C@H](NC(=O)c1ccccc1[Se][Se]c1ccccc1C(=O)N[C@H](C(=O)O)[C@@H](C)CC)C(=O)O
selectivity ratio: > 2.2
--
compound: NS(=O)(=O)c1ccc(NC(=O)c2ccccc2[Se][Se]c2ccccc2C(=O)Nc2ccc(S(N)(=O)=O)cc2)cc1
selectivity ratio: > 4
--
compound: CC1CNC(=O)c2ccccc2SSc2ccccc2C(=O)N1 (stereo not drawn)
selectivity ratio: > 54

---

testSummary: Selectivity index, ratio of CC50 for human MT4 cells to EC50 for HIV-2 ROD
Assay type: toxicity, cell-based
statedConditions: read-out: Ratio CC50/EC50
measurementType: selectivity ratio

sampleSmiles: O=C(O)[C@@H]1CCCN1C(=O)c1ccccc1[Se][Se]c1ccccc1C(=O)N1CCC[C@H]1C(=O)O
result: < 1

sampleSmiles: O=C(O)C[C@H](NC(=O)c1ccccc1[Se][Se]c1ccccc1C(=O)N[C@@H](CC(=O)O)C(=O)O)C(=O)O
result: < 1

sampleSmiles: CC[C@H](C)[C@H](NC(=O)c1ccccc1[Se][Se]c1ccccc1C(=O)N[C@H](C(=O)OC)[C@@H](C)CC)C(=O)OC
result: ≤ 2

sampleSmiles: CCOC(=O)CC[C@H](NC(=O)c1ccccc1[Se][Se]c1ccccc1C(=O)N[C@@H](CCC(=O)OCC)C(=O)OCC)C(=O)OCC
result: ≤ 4

sampleSmiles: O=C(O)CNC(=O)c1ccccc1SSc1ccccc1C(=O)NCC(=O)O
result: < 1

sampleSmiles: NS(=O)(=O)c1ccc(NC(=O)c2cccnc2[Se][Se]c2ncccc2C(=O)Nc2ccc(S(N)(=O)=O)cc2)cc1
result: ≤ 6

sampleSmiles: Cc1cn([C@H]2C[C@H](N=[N+]=[N-])[C@@H](CO)O2)c(=O)[nH]c1=O
result: > 935

sampleSmiles: NS(=O)(=O)c1ccc(OC(=O)c2ccccc2[Se][Se]c2ccccc2C(=O)Oc2ccc(S(N)(=O)=O)cc2)cc1
result: < 1

sampleSmiles: COC(=O)C[C@H](NC(=O)c1ccccc1[Se][Se]c1ccccc1C(=O)N[C@@H](CC(=O)OC)C(=O)OC)C(=O)OC
result: ≤ 3
